Measured target: canine TRPM8 (Canis lupus familiaris)
Construct: expressed in transfected cells
Sequence (Q1A7N1 1-1104): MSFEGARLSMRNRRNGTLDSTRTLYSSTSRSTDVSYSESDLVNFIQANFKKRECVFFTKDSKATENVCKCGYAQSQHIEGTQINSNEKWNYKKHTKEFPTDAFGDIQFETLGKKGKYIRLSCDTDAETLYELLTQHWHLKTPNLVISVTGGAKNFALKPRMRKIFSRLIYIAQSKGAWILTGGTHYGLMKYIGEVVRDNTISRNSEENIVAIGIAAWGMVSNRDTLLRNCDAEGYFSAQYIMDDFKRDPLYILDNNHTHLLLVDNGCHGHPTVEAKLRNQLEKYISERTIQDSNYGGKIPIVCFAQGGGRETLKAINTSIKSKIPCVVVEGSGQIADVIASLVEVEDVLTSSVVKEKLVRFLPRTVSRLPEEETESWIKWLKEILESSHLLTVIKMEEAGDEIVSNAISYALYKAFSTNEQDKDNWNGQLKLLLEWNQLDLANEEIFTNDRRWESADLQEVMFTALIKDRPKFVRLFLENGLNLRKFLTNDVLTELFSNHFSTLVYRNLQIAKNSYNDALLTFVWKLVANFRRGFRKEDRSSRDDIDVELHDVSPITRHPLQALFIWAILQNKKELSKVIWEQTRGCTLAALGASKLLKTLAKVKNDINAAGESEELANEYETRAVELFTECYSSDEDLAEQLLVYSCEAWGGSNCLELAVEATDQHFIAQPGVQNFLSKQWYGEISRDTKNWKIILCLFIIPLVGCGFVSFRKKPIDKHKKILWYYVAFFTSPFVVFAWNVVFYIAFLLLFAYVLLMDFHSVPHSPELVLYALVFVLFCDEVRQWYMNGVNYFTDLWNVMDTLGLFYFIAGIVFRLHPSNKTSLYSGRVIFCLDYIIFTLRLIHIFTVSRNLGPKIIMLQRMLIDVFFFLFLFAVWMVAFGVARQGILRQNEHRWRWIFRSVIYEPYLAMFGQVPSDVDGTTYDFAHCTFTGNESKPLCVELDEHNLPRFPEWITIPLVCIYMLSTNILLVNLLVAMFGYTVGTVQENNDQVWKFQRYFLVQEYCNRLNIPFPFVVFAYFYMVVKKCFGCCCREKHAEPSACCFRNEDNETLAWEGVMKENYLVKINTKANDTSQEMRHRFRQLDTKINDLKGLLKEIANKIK
Procedure details: In Vitro Canine TRPM8 Functional Assay (intracellular Ca2+ fluorescence, icilin activation, HEK293 cells)
Type: cell-based
Particulars: 0.2 μM test compound; individually measured values; sodium salt, 0.2 µM
% Inh (%) @0.2 μM, in vitro TRP M8 Activity values by entry
Number in %, nothing else.

Smiles repr | Recorded value
Cn1nc(C(C)(C)C)c(C#N)c1-c1nc2cc(-c3ccccc3C(F)(F)F)cc(C(F)(F)F)c2[nH]1.[Na] | 99
Cn1nc(C(C)(C)C)c(Cl)c1-c1nc2cc(-c3c(F)cccc3C(F)(F)F)cc(Cl)c2[nH]1.[Na] | 100
Cn1nc(C(C)(C)C)c(C#N)c1-c1nc2cc(-c3c(F)cccc3C(F)(F)F)cc(C(F)(F)F)c2[nH]1.[Na] | 99
Cn1nc(C(C)(C)C)c(C#N)c1-c1nc2cc(-c3ccccc3F)cc(C(F)(F)F)c2[n-]1.[Na+] | 98

Short answer for `Cl.Cn1nc(C(C)(C)C)c(Cl)c1-c1nc2cc(-c3ccccc3F)cc(Cl)c2[nH]1` : % Inh (%) @0.2 μM, in vitro TRP M8 Activity was 100
